Please respond with reported inhibition for every item in the list.
- experiment.summary: inhibitors of E-selectin induction by TNFa, primary screen, imaging, HUVEC, immunofluorescence, MLSMR starter and 10KST1 sets (AID 487);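 further: signal is fraction of cell area covered by stained E-selectin grains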
- measurement.setup: HUVEC TNFalpha-induced E-selectin immunofluorescence imaging, at 2 µM; stronger effect = higher value
# output: bare number, implied unit %

What value of inhibition has been reported for the following molecule? Cc1nc(Nc2ncc3c(n2)CCCC3=O)nc2ccccc12 26.2

Which measured inhibition value corresponds to Cc1c(C)c2cc(Cl)c(O)c(CN3CCN(C)CC3)c2oc1=O ? -104

Quick one: inhibition for O=C(Oc1ccccc1N1C(=O)CCC1=O)c1ccco1 ? -119

I have this molecule here, OCCNc1ncnc2c1c(-c1ccccc1)c(-c1ccccc1)n2Cc1ccco1 , and I need its recorded inhibition. 13.3

Give its inhibition value. Item: CC(NC(=O)NC(N)=O)(C(F)(F)F)C(F)(F)F -84.9

Give its inhibition value. Item: CCN(CCCc1ccccc1)CCCc1ccccc1 -92.8

# lookup: inhibition of COc1cc(-c2cc(C(F)(F)F)n3ncc(C(=O)O)c3n2)cc(OC)c1OC -63

Give its inhibition value. Item: Cc1c(Cl)cccc1Nc1ccccc1C(=O)O -156

What measured inhibition goes with Cn1c(=O)c2c(ncn2CCO)n(C)c1=O ? -46.8

Would you kindly share the measured inhibition for Clc1ccc(-c2cn3c(n2)CCC3)cc1 ? 0.7

What value of measured inhibition is listed for CCCCCSc1nc(O)cc(=O)[nH]1 ? -61.7

Can you look up the measured inhibition of CCn1cc(C(=O)O)c(=O)c2cc(F)c(N3CCNCC3)nc21 for me? -53.3

###

- system: Voltage-gated potassium channel subunit beta-2 (Rattus norvegicus) (UniProt P62483)
- Sequence (P62483 whole entry, looked up): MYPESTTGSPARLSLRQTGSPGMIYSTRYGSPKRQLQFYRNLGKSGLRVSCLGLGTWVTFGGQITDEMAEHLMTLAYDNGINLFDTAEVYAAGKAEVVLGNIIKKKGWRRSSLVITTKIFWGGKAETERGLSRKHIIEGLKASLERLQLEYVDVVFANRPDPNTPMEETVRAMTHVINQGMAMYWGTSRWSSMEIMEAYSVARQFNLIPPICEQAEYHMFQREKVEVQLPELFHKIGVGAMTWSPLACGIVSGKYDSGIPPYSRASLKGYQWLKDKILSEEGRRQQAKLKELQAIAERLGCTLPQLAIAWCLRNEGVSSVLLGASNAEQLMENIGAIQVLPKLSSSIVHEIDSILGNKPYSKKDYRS
- experiment.summary: KvBeta enzyme negative modulators, primary screen, biochemical, NADPH fluorescence (AID 622);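 further: slope of raw intensity against log time taken from 70 to 1610 s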
- measurement.setup: recombinant KvBeta, 4-cyanobenzaldehyde reduction, at 10 µM
Activity calls are given as the source filed them.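 How the source made its calls: active means fluorescence slope higher than the sample average by over 3 SD (cut at about -0.22 in these data, passing the limit was not always enough); inactive means the rest.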
Log the outcome using a class from active, inactive

Assay outcome for COc1cc(C(=O)Nc2nccs2)cc(OC)c1OC : what was it? inactive

Called result for CC(=Nc1ccc(C)c(C)c1)C1=C(O)CCC1=O inactive

Tell me the assay call for c1ccc2c(NCC3CCCO3)nc(-c3ccncc3)nc2c1 (centres undefined) please. inactive

# fetch the recorded call for CCCCC[C@H](O)/C=C/[C@@H]1[C@@H](CCCCCCC(=O)O)[C@@H](O)C[C@H]1O here inactive

I would be grateful if you could indicate the recorded call for CCOC(=O)c1[nH]c2cc(OC)c(OC)cc2c1NC(=O)C(C)N1CCN(Cc2ccccc2)CC1 (centres undefined) . active

Give the logged outcome of this assay for the following molecule: COc1ccc(NC(=O)CSC2=C(C#N)C(c3ccco3)C3=C(CCCC3=O)N2)c(OC)c1 (centres undefined) inactive

Status in this test for O=C(O)C1CSCN1S(=O)(=O)c1cccc2nsnc12 (centres undefined) ? inactive

Recorded test call requested for C[C@@H]1C[C@H](Nc2ccccc2)c2ccccc2N1C(=O)c1cccnc1 inactive

So what was the verdict on NC(N)=NS(=O)(=O)c1ccc(N)cc1 in this test? inactive

Hey, what did the test say about COc1ccc(C2/C(=C(/O)c3ccc(OC(C)C)cc3)C(=O)C(=O)N2CCCN2CCOCC2)cc1 (centres undefined) ? inactive

Record request — test call for COc1ccc2c(C)nc(Nc3nc(C)cc(C)n3)nc2c1 inactive

Each molecule tested received a call. Report the one for N#Cc1nc(COc2ccc(Br)cc2)oc1N1CCCC1 . inactive

How was CCOC(=O)c1[nH]c2ccc(OC)cc2c1NC(=O)CCN1CCN(Cc2ccccc2)CC1 classified in this test? inactive

// param item: CCN(CC)CCNC(=O)c1cc(S(C)(=O)=O)ccc1OC ; yields the recorded call inactive

Can you look up the reported call for CCN(CC)CCCN1C(=O)C(=O)/C(=C(/O)c2ccc(C)cc2)C1c1ccccn1 (centres undefined) for me? inactive

Recorded test outcome, item CCNC(=O)Nn1c(C)nnc1C inactive

Answer briefly: the call reported for CCc1[nH]nc2c1C(c1ccc(Br)s1)C(C#N)=C(N)O2 (centres undefined) in this assay. inactive

Tell me the recorded outcome of this test for N#Cc1c(SCC(=O)O)nc(N2CCCCC2)c2c1CCCC2 . inactive

What call does the record list for O=c1[nH]c(CN2CCCCC2)nc2c1C1(CCCCC1)Cc1ccccc1-2 ? inactive

What is the recorded call for this molecule in the test? Clc1ccccc1-c1nnc2sc(-c3ccco3)nn12 inactive

I'd appreciate the recorded outcome for Cn1c2c(c(=O)n(C)c1=O)C(NC(=O)C(C)(C)C)(C(F)(F)F)C(=O)N2 (centres undefined) from this test. inactive

Name the outcome recorded for Cn1c2ccccc2c2nn(-c3ccccc3)c(=O)cc21 in the assay. inactive

Name the outcome recorded for COc1ccc(CNc2oc(COc3ccccc3Cl)nc2C#N)cc1 in the assay. inactive

Which outcome did this test record for the molecule COc1cccc(C2C(C(=O)c3cccs3)=C(O)C(=O)N2c2cc(C)on2)c1 (centres undefined) ? inactive

Each molecule tested received a call. Report the one for CC1CCc2cc(F)cc3c(O)c(C(=O)NCC4CCCO4)c(=O)n1c23 (centres undefined) . inactive

What was the test verdict on N#C/C(C(=O)NCc1ccco1)=C1/SC(Cc2ccc(F)cc2)C(=O)N1c1ccccc1 (centres undefined) ? inactive

Could you check what this test reported for Nc1ccc(S(=O)(=O)Nc2ccccn2)cc1 ? inactive

Dear colleague, could you share the recorded outcome for COc1ccccc1N1C(=O)C2ON(c3ccccc3)C(c3ccc(N(C)C)cc3)C2C1=O (centres undefined) when you have a moment? inactive

Outcome? Cn1c(OCc2ccc3c(c2)OCO3)nc2c1c(=O)n(Cc1cccc(Cl)c1)c(=O)n2C inactive

Dear colleague, could you share the recorded outcome for N#Cc1c(-c2ccco2)cc(C2CC2)nc1N when you have a moment? inactive

Per the records of this test, what outcome belongs to c1csc(Cc2nn3c(-c4ccncc4)nnc3s2)c1 ? inactive

Could you please tell me the result logged for CCOC(=O)CSc1nc(C)c(C(C)=O)cc1C#N in this assay? inactive

Status in this test for c1cc(-c2nnc3sc(C4CCCCC4)nn23)ccn1 ? inactive

Check the results log: what was the call for Cc1c(Cl)cccc1Nc1ccccc1C(=O)O ? inactive

Tell me the recorded outcome of this test for C[C@@H]1C[C@H]2[C@@H]3C[C@H](F)C4=CC(=O)C=C[C@]4(C)[C@@]3(F)[C@@H](O)C[C@]2(C)[C@@]1(O)C(=O)CO . inactive

So what was the verdict on CCCCN1C[C@H](O)[C@@H](O)[C@H](O)[C@H]1CO in this test? inactive

For ClC(Br)=C(n1cnc2ccccc21)n1cnc2ccccc21 , what call appears in the results of this test? inactive

Can you look up the reported call for COc1cccc(NC(=O)CC2SC(=Nc3ccccc3)NC2=O)c1 (centres undefined) for me? inactive

I'd appreciate the recorded outcome for Cc1ccc(N(CC(O)CN2CCCC2)S(=O)(=O)c2ccc(C)cc2)cc1 (centres undefined) from this test. inactive

How was CCN1CCN(c2nc3c(C)cccn3c(=O)c2/C=C(\C#N)S(=O)(=O)c2ccc(C)cc2)CC1 classified in this test? inactive

Hello, I am checking results. What call was entered for COC(=O)/C(=C1/Oc2cc(C)oc(=O)c2S1)C(F)(F)F ? inactive

Write down the call the test reported for this molecule. Item: CN(C)c1ccc(O)c2c1CC1CC3[C@@H](N(C)C)C(=O)C(C(N)=O)=C(O)[C@]3(O)C(=O)C1=C2O (some centres undefined) inactive

Outcome logged for CCCc1nn(C)c2c1C(c1cccnc1)C(C#N)=C(N)O2 (centres undefined) in this assay: inactive

Call for entry N#C/C(=C\N1CCN(Cc2ccc3c(c2)OCO3)CC1)c1nc2ccccc2s1 : inactive

###

Record form. Attribute: inhibition. Fill in for each entry.
- system: Dual specificity protein phosphatase 6 (Homo sapiens)
- experiment.summary: DUSP6 inhibitors restoring Erk phosphorylation by chemical complementation, primary imaging in DUSP6-transfected HeLa (AID 609);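 further: phospho-Erk level distribution per well compared with pooled transfected vehicle control wells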
- measurement.setup: HeLa MKP-3 transfected, phospho-Erk imaging KS statistic; at 10 µM; stronger effect = higher value; cells stimulated with TPA for 15 min
Answer format: numeric, % implied, no suffix.

Query (molecule): COc1ccc(OC)c(NC(=O)CSc2nnc(-c3ccco3)n2-c2ccc(C(=O)O)cc2)c1 ; field requested: inhibition 11.9

Request the reported inhibition associated with O=C(N(c1ccccc1)c1ccccc1)n1ccnc1 -11.5

Please look up its inhibition: COCc1cc(=O)[nH]c(Nc2nc3ccccc3o2)n1 -2.09

inhibition lookup needed for COc1ccc(OC)c2c(N)c(C#N)c(C(F)(F)C(F)(F)F)nc12 , thanks. 21

Quick one: inhibition for Cn1c(OCc2cccnc2)nc2c1c(=O)n(Cc1ccc(Cl)cc1)c(=O)n2C ? 2.46

# inhibition lookup, item CCOC(=O)c1[nH]c2cc3c(cc2c1NC(=O)CN1CCC(C)CC1)OCO3 1.6e-07

Suppose we examine the molecule NC(N)=NS(=O)(=O)c1ccc(N)cc1 ; what inhibition value has been reported? 14.6

Would you mind telling me what inhibition value was observed for CC(C(=O)O)c1ccc(-c2ccccc2)c(F)c1 (stereo unspecified) ? 23.4

# input molecule: CCNCc1cc2cc(C)ccc2[nH]c1=O ; wanted: its inhibition 2.71

What value of measured inhibition is listed for CCOc1ccc(C2/C(=C(/O)c3ccc(F)cc3)C(=O)C(=O)N2CCCN(C)C)cc1 (stereo unspecified) ? -1.12

Find the recorded inhibition belonging to CCC(=O)N[C@@H]1CC(C(C)(C)NC(=O)CC)CC=C1C (stereo partly specified) and report it. -6.06

Values were extracted from PubChem BioAssay.
